Ref: the supplement of paper PMC7125110

Measured self-cleavage kobs at 640 uM GlcN6P by item
B1: glmS ribozyme (parent)
chain: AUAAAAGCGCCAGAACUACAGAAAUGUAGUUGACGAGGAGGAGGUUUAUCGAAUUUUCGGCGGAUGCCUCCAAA

- Variants of: B1
- experiment.notes: self-cleavage kobs at 640 uM GlcN6P; higher = faster cleavage; RNA array
- condition.description: with glucosamine-6-phosphate
Fewer inactive variants are shown than the library holds.
A number alone suffices; assume s⁻¹.

Consider the following illustrative entries.
A39C U56A = 0.000412
U56A U65G = 0.000348
A53C U56G = 0.000851

Task: Bench note: what self-cleavage kobs at 640 uM GlcN6P did U30C G32U A64G show?
Output: 7.24e-05

Task: Queued: U56A U69G
Output: 5.7e-05

Task: Queued: A14C G26A
Output: 0.000887

Task: Queued: U30A A53C
Output: 0.000357

Task: Queued: G37A A42G
Output: 0.000936

Task: Queued: A6C C50G C61G
Output: 0.00102
